// provenance: patent US20200291018A1

- Tested On: AXL (Homo sapiens, UniProt P30530)
- Sequence (P30530 26-894): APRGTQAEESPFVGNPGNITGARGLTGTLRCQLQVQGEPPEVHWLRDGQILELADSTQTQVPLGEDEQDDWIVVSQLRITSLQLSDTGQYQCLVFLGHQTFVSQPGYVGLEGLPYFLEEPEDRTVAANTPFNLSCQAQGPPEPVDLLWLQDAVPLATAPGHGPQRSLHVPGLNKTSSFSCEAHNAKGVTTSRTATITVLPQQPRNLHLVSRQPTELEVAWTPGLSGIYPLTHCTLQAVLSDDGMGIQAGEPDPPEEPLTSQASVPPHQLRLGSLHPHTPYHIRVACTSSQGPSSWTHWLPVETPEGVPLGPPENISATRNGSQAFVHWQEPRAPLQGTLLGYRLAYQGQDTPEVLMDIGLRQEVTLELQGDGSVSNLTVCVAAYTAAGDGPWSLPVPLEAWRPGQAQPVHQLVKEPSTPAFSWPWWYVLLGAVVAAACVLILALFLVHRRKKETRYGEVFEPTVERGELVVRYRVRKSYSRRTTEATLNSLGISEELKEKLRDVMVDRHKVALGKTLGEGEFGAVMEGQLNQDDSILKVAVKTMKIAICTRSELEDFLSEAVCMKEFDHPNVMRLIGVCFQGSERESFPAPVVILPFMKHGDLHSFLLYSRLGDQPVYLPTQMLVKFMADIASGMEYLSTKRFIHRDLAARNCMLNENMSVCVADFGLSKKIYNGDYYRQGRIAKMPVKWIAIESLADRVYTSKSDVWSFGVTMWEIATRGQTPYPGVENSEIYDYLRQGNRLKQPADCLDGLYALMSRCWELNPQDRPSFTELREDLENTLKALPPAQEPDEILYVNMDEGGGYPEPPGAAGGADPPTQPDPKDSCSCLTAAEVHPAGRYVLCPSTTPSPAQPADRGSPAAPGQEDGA
pIC50: −log10 of the molar value. Structures can show the parent of a compound that is named as a salt.
Readout Name: pIC50

Reference set, count: 5
Compound	Tested On	pIC50
CCCC(C)Nc1ncc2c(OC3CCN(CCOC)CC3)ncc([C@H]3CC[C@H](O)CC3)c2n1 (some centres unmarked) [Compound 173]	AXL (Homo sapiens, UniProt P30530)	6.00 to 7.00
COC[C@H](C)Nc1ncc2c(OC3CCN(S(C)(=O)=O)CC3)ncc([C@H]3CC[C@H](O)CC3)c2n1 [Compound 289]	AXL (Homo sapiens, UniProt P30530)	6.00 to 7.00
COC[C@H](C)Nc1ncc2c(OC3CCOCC3)ncc([C@@H]3CCCN(C)C3)c2n1 [Compound 333]	AXL (Homo sapiens, UniProt P30530)	5.00 to 6.00
CCCCNc1ncc2c(NCc3ccc(F)cc3)ncc([C@H]3CC[C@H](O)CC3)c2n1 [Compound 103, hydrochloride]	AXL (Homo sapiens, UniProt P30530)	6.00 to 7.00
COC[C@H](C)Nc1ncc2c(OC3C[C@H](C)N(C)[C@@H](C)C3)ncc([C@H]3CC[C@H](O)CC3)c2n1 (some centres unmarked) [Compound 387]	AXL (Homo sapiens, UniProt P30530)	6.00 to 7.00

Data request: Indicate the recorded pIC50 value for this compound: COC[C@H](C)Nc1ncc2c(O[C@H]3C[C@@H](O)C3(C)C)ncc([C@H]3CC[C@H](O)CC3)c2n1 [Compound 431]
Data returned: 5.00 to 6.00

Data request: Indicate the recorded pIC50 value for this compound: C[C@@H](CC(F)(F)F)Nc1ncc2c(O[C@@H]3C[C@H]4CC[C@@H](C3)N4[C@@H]3CCOC3)ncc([C@H]3CC[C@H](O)CC3)c2n1 [Compound 415]
Data returned: ≥ 7.00

Data request: Indicate the recorded pIC50 value for this compound: CCCC(C)Nc1ncc2c(O[C@@H]3C[C@H]4CC[C@@H](C3)O4)ncc([C@H]3CC[C@H](O)CC3)c2n1 (some centres unmarked) [Compound 174]
Data returned: 6.00 to 7.00

---

Parameter IC50: see the listing below.
- Tested On: FLT3 (Homo sapiens, UniProt P36888)
- Sequence (P36888 27-993): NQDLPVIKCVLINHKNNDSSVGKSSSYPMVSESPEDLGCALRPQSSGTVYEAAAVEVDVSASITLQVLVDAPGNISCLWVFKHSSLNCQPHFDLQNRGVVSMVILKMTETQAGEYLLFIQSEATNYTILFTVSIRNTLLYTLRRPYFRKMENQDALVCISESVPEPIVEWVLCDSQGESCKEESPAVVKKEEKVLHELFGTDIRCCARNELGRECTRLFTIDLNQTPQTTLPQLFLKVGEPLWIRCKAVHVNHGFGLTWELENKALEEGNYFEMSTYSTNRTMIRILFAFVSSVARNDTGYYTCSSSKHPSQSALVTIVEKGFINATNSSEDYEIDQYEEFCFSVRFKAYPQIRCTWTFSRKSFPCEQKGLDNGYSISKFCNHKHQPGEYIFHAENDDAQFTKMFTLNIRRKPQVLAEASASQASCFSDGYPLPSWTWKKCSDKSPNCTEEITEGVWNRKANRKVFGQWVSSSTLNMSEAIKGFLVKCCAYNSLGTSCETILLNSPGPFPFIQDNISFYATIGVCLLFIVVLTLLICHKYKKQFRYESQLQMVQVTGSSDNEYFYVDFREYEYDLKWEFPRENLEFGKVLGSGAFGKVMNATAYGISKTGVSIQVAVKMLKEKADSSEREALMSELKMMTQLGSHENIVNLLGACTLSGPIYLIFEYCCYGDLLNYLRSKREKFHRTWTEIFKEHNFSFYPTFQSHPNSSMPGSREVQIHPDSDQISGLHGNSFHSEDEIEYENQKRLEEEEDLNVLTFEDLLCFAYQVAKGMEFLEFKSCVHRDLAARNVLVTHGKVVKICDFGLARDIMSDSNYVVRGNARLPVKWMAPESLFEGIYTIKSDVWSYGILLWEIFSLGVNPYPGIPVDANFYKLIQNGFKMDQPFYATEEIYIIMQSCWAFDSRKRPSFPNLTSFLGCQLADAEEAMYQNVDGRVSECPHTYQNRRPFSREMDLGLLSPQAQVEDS
Structures can show the parent of a compound that is named as a salt.

Compound	IC50
C[C@@H](CC(F)(F)F)Nc1ncc2c(O[C@H]3C[C@H](N4CCOCC4)C3)ncc([C@H]3CC[C@H](O)CC3)c2n1	0.1 to 1 µM
Cc1nccn1CCNc1ncc2c(OC3CCNCC3)ncc([C@H]3CC[C@H](O)CC3)c2n1	1 to 10 µM
CC(C)CC(C)Nc1ncc2c(=O)n(C3CCNCC3)cc([C@H]3CC[C@H](O)CC3)c2n1 (stereo partly drawn)	1 to 10 µM
CCN1C(C)(C)CC(Oc2ncc([C@H]3CC[C@H](O)CC3)c3nc(N[C@@H](C)CC(F)(F)F)ncc23)CC1(C)C	0.1 to 1 µM

Data request: Indicate the recorded IC50 value for this compound: CCCCNc1cc2c(cn1)c(=O)n(C1CCNCC1)cc2[C@H]1CC[C@H](O)CC1 [Compound 109, hydrochloride]
Data returned: 0.1 to 1 µM

Data request: Indicate the recorded IC50 value for this compound: `CCCCNc1ncc2c(OCCOC)ncc([C@H]3CC[C@H](O)CC3)c2n1`
Data returned: ≤ 0.1 µM

Data request: Indicate the recorded IC50 value for this compound: `CC(=O)N1[C@@H]2CC[C@H]1C[C@H](Oc1ncc([C@H]3CC[C@H](O)CC3)c3nc(N[C@@H](C)CC(F)(F)F)ncc13)C2`
Data returned: 0.1 to 1 µM

Data request: Indicate the recorded IC50 value for this compound: `C[C@@H](CC(F)(F)F)Nc1ncc2c(O[C@@H]3C[C@H]4CC[C@@H](C3)N4C[C@H]3CCCO3)ncc([C@H]3CC[C@H](O)CC3)c2n1`
Data returned: ≤ 0.1 µM

Data request: Indicate the recorded IC50 value for this compound: C[C@@H](CC(F)(F)F)Nc1ncc2c(OC3C[C@H]4CC[C@@H](C3)N4C)ncc([C@H]3CC[C@H](O)CC3)c2n1 (stereo partly drawn)
Data returned: 0.1 to 1 µM

---

Target chain: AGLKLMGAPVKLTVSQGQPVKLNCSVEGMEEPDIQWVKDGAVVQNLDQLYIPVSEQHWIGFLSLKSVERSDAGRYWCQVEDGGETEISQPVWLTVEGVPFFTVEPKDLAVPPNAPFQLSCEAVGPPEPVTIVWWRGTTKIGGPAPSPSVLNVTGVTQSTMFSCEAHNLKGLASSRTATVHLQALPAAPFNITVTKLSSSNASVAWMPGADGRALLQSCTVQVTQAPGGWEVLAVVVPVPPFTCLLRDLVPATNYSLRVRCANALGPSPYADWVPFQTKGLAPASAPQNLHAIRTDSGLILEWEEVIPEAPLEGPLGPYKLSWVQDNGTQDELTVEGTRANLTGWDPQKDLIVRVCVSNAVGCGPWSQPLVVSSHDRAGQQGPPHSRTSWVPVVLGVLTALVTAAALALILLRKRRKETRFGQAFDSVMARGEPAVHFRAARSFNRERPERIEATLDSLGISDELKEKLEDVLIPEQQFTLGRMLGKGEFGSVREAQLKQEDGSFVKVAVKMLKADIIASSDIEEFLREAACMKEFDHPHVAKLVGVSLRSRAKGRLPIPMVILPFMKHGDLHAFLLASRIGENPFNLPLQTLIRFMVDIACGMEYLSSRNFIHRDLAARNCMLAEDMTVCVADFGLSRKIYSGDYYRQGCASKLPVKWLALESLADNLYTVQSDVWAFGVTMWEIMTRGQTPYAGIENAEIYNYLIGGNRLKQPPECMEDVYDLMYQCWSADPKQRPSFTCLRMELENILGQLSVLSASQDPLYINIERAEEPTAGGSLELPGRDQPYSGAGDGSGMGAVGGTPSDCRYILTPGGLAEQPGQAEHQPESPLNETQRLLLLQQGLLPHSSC
Parameter IC50: see the listing below.

Reference set, count: 2
Molecule	Readout Name	Reported
CCCCNc1ncc2c(NC3CCOCC3)ncc([C@H]3CC[C@H](O)CC3)c2n1	IC50	≤ 100 nM
CC1(Nc2ncc3c(OC4CCOCC4)ncc(-c4cccc(NS(C)(=O)=O)c4)c3n2)CC1	IC50	100 to 1000 nM

Data request: Indicate the recorded IC50 value for this molecule: `COC[C@H](C)Nc1ncc2c(OC3CCOCC3)ncc([C@H]3CC[C@](C)(O)CC3)c2n1`
Data returned: ≤ 100 nM

Data request: Indicate the recorded IC50 value for this molecule: `O[C@H]1CC[C@H](c2cnc(OC3CCNCC3)c3cnc(Nc4ccc(F)cc4)nc32)CC1`
Data returned: ≤ 100 nM

Data request: Indicate the recorded IC50 value for this molecule: `COC[C@H](C)Nc1ncc2c(O[C@@H]3CCOC3)ncc([C@H]3CC[C@H](O)CC3)c2n1`
Data returned: 100 to 1000 nM

Data request: Indicate the recorded IC50 value for this molecule: COC[C@H](C)Nc1ncc2c(OC3CCOCC3)ncc(C3CCCCN3)c2n1 (some centres unmarked)
Data returned: 1000 to 10000 nM

Data request: Indicate the recorded IC50 value for this molecule: `COC[C@H](C)Nc1ncc2c(Nc3ccc(C)nc3)ncc([C@H]3CC[C@H](O)CC3)c2n1`
Data returned: ≤ 100 nM

Data request: Indicate the recorded IC50 value for this molecule: `COC[C@H](C)Nc1ncc2c(OC3CCOCC3)ncc(-c3ccc(N)cc3)c2n1`
Data returned: 100 to 1000 nM
